experiment: Mouse liver microsomal stability assay; conditions: mouse, mouse liver microsomes
Kindly supply the reported remaining at 0.5 h, 1 µM values for the records listed here.

Task: Given Cc1ccc2c(-c3ccncc3)c(-c3ccc(F)cc3)nn2c1 [GW, GW461484A, reference compound] , state its recorded remaining at 0.5 h, 1 µM.
Output: < 1%

Task: // next record CCc1ccn2c(-c3ccncc3)c(-c3ccc(F)cc3)nc2c1
Output: 0%

Task: Same question, N#Cc1ccn2c(-c3ccncc3)c(-c3ccc(F)cc3)nc2c1 this time
Output: 80%

Task: Also need Fc1ccc(-c2nc3cc(F)ccn3c2-c2ccncc2)cc1 , thanks.
Output: 75%

Task: Record: CCCc1ccn2c(-c3ccncc3)c(-c3ccc(F)cc3)nc2c1
Output: 0%
